target: recombinant human ACC2 (Homo sapiens, UniProt O00763, V2141I)
Construct: To delete the NH2-terminus 148 amino acid of human ACC2; 6xHis (C); purified on a c-Myc-5 IgG column
Sequence (O00763 149-2458 V2141I): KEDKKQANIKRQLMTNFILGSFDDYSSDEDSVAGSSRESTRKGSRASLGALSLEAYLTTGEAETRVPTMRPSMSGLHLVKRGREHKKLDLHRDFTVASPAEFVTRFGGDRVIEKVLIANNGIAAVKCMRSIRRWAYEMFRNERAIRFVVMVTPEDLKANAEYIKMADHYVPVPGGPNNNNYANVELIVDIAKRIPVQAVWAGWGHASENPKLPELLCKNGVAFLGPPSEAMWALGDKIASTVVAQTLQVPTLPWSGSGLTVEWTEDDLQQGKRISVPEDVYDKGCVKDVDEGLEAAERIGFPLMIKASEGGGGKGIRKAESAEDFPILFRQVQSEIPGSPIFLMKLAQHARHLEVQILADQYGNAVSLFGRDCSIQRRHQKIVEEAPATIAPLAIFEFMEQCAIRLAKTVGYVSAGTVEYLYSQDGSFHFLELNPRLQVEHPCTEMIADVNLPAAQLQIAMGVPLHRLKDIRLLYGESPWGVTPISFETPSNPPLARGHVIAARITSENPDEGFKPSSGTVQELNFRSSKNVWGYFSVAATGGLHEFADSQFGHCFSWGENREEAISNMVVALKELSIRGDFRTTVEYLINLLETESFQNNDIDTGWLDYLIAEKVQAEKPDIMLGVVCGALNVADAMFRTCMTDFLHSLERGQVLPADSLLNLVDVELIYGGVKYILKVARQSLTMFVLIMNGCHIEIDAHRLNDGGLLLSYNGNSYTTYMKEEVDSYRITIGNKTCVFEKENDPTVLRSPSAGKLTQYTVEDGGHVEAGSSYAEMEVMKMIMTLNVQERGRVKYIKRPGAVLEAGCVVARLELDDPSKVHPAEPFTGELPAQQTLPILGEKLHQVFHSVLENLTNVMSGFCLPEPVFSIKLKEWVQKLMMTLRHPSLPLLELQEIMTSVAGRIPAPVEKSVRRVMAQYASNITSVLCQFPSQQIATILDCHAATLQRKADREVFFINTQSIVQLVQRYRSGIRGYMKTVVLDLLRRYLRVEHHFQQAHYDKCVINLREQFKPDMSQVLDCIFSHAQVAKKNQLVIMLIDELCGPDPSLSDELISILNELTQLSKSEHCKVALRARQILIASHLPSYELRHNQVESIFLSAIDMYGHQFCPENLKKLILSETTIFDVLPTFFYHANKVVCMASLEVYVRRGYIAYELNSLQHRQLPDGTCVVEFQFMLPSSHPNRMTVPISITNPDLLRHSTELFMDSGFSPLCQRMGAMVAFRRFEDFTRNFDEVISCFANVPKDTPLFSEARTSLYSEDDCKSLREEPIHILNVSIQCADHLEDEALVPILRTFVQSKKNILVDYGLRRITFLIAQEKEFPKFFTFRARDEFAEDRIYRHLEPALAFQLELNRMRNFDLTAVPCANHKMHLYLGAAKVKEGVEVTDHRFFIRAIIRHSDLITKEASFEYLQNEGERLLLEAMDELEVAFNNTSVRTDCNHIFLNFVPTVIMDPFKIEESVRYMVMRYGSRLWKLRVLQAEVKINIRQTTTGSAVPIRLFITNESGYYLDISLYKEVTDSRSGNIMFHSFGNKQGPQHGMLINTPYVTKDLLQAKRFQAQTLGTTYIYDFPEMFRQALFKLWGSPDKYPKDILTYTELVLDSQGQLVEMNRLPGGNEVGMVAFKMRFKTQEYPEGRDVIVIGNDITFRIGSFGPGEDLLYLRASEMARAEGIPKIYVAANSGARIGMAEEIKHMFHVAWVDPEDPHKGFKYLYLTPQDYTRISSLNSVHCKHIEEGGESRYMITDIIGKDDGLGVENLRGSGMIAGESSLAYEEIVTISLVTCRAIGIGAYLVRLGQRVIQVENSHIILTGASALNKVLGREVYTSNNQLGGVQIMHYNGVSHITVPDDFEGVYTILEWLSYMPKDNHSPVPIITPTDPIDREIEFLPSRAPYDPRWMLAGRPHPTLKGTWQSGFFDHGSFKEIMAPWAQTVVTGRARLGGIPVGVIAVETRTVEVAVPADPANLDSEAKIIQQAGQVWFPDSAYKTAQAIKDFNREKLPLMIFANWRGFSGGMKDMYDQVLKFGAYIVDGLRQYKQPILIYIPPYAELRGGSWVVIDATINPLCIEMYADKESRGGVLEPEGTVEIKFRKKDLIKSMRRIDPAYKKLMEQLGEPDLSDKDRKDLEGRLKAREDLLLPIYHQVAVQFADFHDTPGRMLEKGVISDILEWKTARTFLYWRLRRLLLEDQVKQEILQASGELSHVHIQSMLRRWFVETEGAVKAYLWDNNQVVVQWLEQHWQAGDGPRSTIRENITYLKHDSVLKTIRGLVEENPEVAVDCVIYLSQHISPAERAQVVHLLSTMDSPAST
protocol summary: ACC enzyme activity assay ([14C]bicarbonate fixation) with purified recombinant human ACC2
assay setup: concentration dependent inhibition of recombinant human ACC2
attribute measured: pIC50
A value of pIC50 is the negative decimal logarithm of a concentration given in moles per litre.

recombinant human ACC2 (Homo sapiens, UniProt O00763, V2141I) pIC50 of CC(C)(COP(=O)(O)OP(=O)(O)OC[C@H]1O[C@@H](n2cnc3c(N)ncnc32)[C@H](O)[C@@H]1OP(=O)(O)O)[C@@H](O)C(=O)NCCC(=O)NCCSC(=O)CC(=O)O [malonyl CoA] is 4.57

As a next step, examine the molecule that follows.
Result for CCCCCCCCCCCCCCCC(=O)SCCNC(=O)CCNC(=O)[C@H](O)C(C)(C)COP(=O)(O)OP(=O)(O)OC[C@H]1O[C@@H](n2cnc3c(N)ncnc32)[C@H](O)[C@@H]1OP(=O)(O)O [palmitoyl CoA] , tested on recombinant human ACC2 (Homo sapiens, UniProt O00763, V2141I), pIC50: 5.36
